method summary: activity coefficient (dimensionless); of the first substance listed, at infinite dilution; xn = mol fraction of the nth substance listed
stated conditions: 333.15 K; Liquid; Chromatography; x1 = 0
Measured activity coefficient of individual entries
Kindly provide the number alone.

Use these answered entries as a reference point.
compound	activity coefficient
CCC(=O)OC [methyl propanoate] + CCCC[N+](C)(C)C.O=S(=O)([N-]S(=O)(=O)C(F)(F)F)C(F)(F)F	0.92
CCC(C)O (stereo not given) [butan-2-ol] + CCCC[N+](C)(C)C.O=S(=O)([N-]S(=O)(=O)C(F)(F)F)C(F)(F)F	2.06
CCCCCO [pentan-1-ol] + CCCC[N+](C)(C)C.O=S(=O)([N-]S(=O)(=O)C(F)(F)F)C(F)(F)F	3.39
CCCC(=O)OC [methyl butanoate] + CCCC[N+](C)(C)C.O=S(=O)([N-]S(=O)(=O)C(F)(F)F)C(F)(F)F	1.26

Attention now turns to another entry.
Prompt: // activity coefficient lookup, key: CCCCC(=O)OC [methyl pentanoate] + CCCC[N+](C)(C)C.O=S(=O)([N-]S(=O)(=O)C(F)(F)F)C(F)(F)F
Completion: 1.63
